This collection of values is drawn from paper PMC12647017.

Molecular target: human IgG conjugated with fluorescein isothiocyanate (IgG-FITC) (human)
Experiment: MST; IgG-FITC fixed at 50 nM; 16 serial dilutions of E6 from 23.5 uM to 0.7 nM; 50 mM MOPS, 0.05% Tween-20, pH 7; 25 C; fit models Kd and Hill
pEC50: −log10 of the molar value.
REPORTED_ENDPOINT: pEC50

| BINDER | RECORDED_NUMBER |
| --- | --- |
| SMGLPPGWDEYKTRRFKLGKTYYYNHHILSKTSTWTDPRMSS (designed binder) [E6 (lead ligand, WWp5_4 scaffold), without tag] | 6.84 |
